ASSAY_OVERVIEW: in vitro
MEASUREMENT_CONTEXT: human, hela cells, % viability
REPORTED_METRIC: viability at 28.5 h, 10 µM (%)

>  <COMPOUND>
Cc1ccnn1CCC(=O)N1CCCCC1c1nc2ccccc2[nH]1 (centres unmarked)

>  <VALUE_REPORTED>
105

$$$$
>  <COMPOUND>
Cn1cc(C(=O)NC2CCN(c3ccc(C#N)cc3F)CC2)cn1

>  <VALUE_REPORTED>
83.7

$$$$
>  <COMPOUND>
CCC1CCCCN1C(=O)c1cc2cc(Cl)ccc2[nH]1 (centres unmarked)

>  <VALUE_REPORTED>
102

$$$$
>  <COMPOUND>
O=C1NCCc2c1[nH]c1c(Cl)cccc21

>  <VALUE_REPORTED>
78.2

$$$$
>  <COMPOUND>
COc1ccnc(N2CCCN(Cc3ncc(Cl)n3C)CC2)n1

>  <VALUE_REPORTED>
111

$$$$
